Origin of measurements: patent US11117887B2

Test Name: in vitro
Experimental Setup: dog
Endpoint Name: CC50 at 3 days

In the examples that follow, each entry is paired with its recorded CC50 at 3 days.
Cc1nc(-c2c[nH]c3c(F)cc(F)cc23)nc(N[C@H]2CCC[C@@H](Nc3nc(Cl)nc4sccc34)C2)c1F [Compound 39]
> 25 µM
Cc1cc(N[C@@H]2CCC[C@H](Nc3nc(-c4c[nH]c5c(F)cc(F)cc45)ncc3F)C2)ncn1 [Compound 11]
5.97 µM
Cc1nc(-c2c[nH]c3c(F)cc(F)cc23)nc(N[C@H]2CCC[C@@H](Nc3nc(Cl)nc4c3CCCC4)C2)c1F [Compound 37]
> 25 µM
Fc1cc(F)c2[nH]cc(-c3ncc(F)c(N[C@H]4CCC[C@@H](Nc5ccncn5)C4)n3)c2c1 [Compound 18]
8.34 µM
Cc1nc(-c2c[nH]c3c(F)cc(F)cc23)nc(N[C@H]2CCC[C@@H](Nc3cncc(Cl)n3)C2)c1F [Compound 40]
> 25 µM

# ---- query compound ----
For the compound Cc1nc(-c2c[nH]c3c(F)cc(F)cc23)nc(N[C@H]2CCC[C@@H](Nc3nc(O)ncc3C#N)C2)c1F [Compound 43] , what CC50 at 3 days is on record?
> 25 µM
